Recorded measurements of inhibition at 10 µM, one per entry
molecular target: N-type Ca2+ channels in superior cervical ganglion (SCG) neurons (Rattus norvegicus, UniProt Q02294); construct: from tissue; experiment: Whole-cell voltage clamp, N-type Ca2+ current in SCG neurons; assay type: cell-based; conditions: 10 μM

| molecule | inhibition at 10 µM (%) |
| --- | --- |
| CC(C)C[C@H](NC(=O)N1CCCCCC1)C(=O)N[C@@H](Cc1ccc(OCc2cccnc2)cc1)C(=O)OC(C)(C)C | 68 |
| CC(C)C[C@H](NS(=O)(=O)N1CCOCC1)C(=O)N[C@@H](Cc1ccc(OCc2ccccc2)cc1)C(=O)OC(C)(C)C | 64 |
| CC(C)C[C@H](NC(=O)N1CCCCCC1)C(=O)N[C@](C)(Cc1ccc(OCc2ccccc2)cc1)C(=O)OC(C)(C)C [Example 11B] | 17 |
| CC(C)C[C@H](NC(=O)N1CCCCCC1)C(=O)N[C@@H](Cc1ccc(C=Cc2ccccc2)cc1)C(=O)NC(C)(C)C | 39 |
| CC(C)C[C@H](NC(=O)N1CCCCCC1)C(=O)N[C@@H](Cc1ccc(OCc2ccncc2)cc1)C(=O)OC(C)(C)C | 58 |
| CC(C)C[C@H](NC(=O)N1CCCCCC1)C(=O)N[C@@H](Cc1ccc(OCc2ccccc2)cc1)C(=O)N1CCCCC1 | 4 |
| CC(C)CC(NC(=O)N1CCCCCC1)C(=O)NC(Cc1ccc(OCc2ccccc2)cc1)C(=O)NC(C)C(C)C (centres unmarked) | 61 |
| CC(C)C[C@H](NC(=O)N1CCCCCC1)C(=O)N[C@@H](Cc1ccc(OCc2ccccc2)cc1)C(=O)NCCO | 84 |
| CC(C)C[C@H](NC(=O)N1CCCCCC1)C(=O)N[C@@H](Cc1ccc(OCc2ccccc2)cc1)C(N)=O | 45 |
| CC(C)C[C@H](NC(=O)N1CCOCC1)C(=O)N[C@@H](Cc1ccc(OCc2ccccc2)cc1)C(=O)NCCN1CCCCC1 | 87 |
| CC(C)C[C@H](NC(=O)N1CCCCCC1)C(=O)N[C@@H](Cc1ccc(C#CC2(O)CCCCC2)cc1)C(=O)NC(C)(C)C | 17 |
| CC(C)C[C@@H](NC(=O)N1CCCCCC1)C(=O)N[C@H](Cc1ccc(OCc2ccccc2)cc1)C(=O)OC(C)(C)C | 51 |
| CC(C)C[C@H](NC(=O)N1CCCCCC1)C(=O)N[C@@H](Cc1ccc(OC(C)(C)C)cc1)C(=O)OC(C)(C)C | 65 |
| CC(C)C[C@H](NC(=O)N1CCCCCC1)C(=O)N[C@@H](Cc1ccc(OCc2ccccc2)cc1)C(=O)OC(C)(C)C | 68 |

* * *

Target: N-type Ca2+ channels in IMR-32 cells (Homo sapiens)
Construct: host or cells: IMR-32 cells, differentiated with dibutyryl cAMP and bromodeoxyuridine
Sequence (Q00975 whole entry): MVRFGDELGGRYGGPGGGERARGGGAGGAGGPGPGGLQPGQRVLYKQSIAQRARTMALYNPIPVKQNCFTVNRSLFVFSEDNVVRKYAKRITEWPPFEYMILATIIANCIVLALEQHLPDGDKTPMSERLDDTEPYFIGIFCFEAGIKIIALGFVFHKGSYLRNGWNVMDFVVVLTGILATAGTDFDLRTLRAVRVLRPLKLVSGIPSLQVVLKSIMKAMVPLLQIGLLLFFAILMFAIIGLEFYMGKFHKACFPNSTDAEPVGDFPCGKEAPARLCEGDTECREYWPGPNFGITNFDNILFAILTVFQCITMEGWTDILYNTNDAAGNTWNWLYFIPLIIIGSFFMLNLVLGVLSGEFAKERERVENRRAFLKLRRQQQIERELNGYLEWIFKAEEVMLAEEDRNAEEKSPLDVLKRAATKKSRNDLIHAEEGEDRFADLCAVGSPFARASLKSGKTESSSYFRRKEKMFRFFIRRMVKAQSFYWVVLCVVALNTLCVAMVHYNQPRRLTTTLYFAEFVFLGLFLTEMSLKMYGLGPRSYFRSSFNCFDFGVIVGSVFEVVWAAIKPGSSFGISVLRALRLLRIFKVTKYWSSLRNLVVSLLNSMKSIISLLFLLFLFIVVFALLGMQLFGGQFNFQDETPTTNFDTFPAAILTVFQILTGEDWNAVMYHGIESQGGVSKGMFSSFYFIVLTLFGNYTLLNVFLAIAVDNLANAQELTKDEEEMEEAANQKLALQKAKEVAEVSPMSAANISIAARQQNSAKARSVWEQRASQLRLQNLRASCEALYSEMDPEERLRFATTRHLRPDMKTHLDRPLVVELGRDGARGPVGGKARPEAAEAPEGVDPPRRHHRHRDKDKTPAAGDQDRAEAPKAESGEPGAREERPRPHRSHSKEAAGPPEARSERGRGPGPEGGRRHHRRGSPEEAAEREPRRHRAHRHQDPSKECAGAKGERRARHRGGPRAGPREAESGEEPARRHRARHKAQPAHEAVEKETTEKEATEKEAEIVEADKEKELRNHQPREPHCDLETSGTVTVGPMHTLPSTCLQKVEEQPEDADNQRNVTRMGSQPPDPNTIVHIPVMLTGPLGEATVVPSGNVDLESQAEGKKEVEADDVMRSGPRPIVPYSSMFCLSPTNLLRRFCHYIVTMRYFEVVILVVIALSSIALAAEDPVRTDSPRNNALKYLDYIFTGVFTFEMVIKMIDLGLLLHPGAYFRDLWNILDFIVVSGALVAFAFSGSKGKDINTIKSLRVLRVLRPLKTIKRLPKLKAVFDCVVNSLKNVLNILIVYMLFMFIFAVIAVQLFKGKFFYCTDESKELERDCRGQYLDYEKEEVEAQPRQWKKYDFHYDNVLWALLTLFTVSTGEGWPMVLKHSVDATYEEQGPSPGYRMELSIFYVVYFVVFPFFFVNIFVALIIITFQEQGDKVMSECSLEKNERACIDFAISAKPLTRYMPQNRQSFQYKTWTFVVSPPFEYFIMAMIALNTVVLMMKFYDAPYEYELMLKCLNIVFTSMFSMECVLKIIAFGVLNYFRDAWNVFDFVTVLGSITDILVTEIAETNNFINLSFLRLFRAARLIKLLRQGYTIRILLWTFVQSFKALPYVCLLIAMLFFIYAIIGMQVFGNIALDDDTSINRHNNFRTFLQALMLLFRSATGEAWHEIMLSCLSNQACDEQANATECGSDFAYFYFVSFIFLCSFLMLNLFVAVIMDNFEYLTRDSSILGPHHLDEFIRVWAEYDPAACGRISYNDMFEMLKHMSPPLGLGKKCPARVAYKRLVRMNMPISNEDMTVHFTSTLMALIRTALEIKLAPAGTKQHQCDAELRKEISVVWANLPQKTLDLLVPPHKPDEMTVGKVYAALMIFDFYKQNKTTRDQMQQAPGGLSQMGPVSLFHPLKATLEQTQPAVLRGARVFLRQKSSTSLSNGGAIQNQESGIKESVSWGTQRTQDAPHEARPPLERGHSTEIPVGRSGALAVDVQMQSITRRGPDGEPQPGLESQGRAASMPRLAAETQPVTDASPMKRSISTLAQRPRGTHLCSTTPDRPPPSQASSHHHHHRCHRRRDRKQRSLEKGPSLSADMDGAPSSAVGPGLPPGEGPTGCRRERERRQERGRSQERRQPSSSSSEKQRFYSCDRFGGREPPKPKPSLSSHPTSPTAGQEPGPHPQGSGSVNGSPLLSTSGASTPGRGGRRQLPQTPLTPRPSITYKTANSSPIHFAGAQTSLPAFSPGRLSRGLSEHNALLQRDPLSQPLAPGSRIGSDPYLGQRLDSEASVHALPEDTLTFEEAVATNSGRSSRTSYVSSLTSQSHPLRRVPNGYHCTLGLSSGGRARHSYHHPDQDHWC
Sequence (P54289 25-956 partner limits assumed): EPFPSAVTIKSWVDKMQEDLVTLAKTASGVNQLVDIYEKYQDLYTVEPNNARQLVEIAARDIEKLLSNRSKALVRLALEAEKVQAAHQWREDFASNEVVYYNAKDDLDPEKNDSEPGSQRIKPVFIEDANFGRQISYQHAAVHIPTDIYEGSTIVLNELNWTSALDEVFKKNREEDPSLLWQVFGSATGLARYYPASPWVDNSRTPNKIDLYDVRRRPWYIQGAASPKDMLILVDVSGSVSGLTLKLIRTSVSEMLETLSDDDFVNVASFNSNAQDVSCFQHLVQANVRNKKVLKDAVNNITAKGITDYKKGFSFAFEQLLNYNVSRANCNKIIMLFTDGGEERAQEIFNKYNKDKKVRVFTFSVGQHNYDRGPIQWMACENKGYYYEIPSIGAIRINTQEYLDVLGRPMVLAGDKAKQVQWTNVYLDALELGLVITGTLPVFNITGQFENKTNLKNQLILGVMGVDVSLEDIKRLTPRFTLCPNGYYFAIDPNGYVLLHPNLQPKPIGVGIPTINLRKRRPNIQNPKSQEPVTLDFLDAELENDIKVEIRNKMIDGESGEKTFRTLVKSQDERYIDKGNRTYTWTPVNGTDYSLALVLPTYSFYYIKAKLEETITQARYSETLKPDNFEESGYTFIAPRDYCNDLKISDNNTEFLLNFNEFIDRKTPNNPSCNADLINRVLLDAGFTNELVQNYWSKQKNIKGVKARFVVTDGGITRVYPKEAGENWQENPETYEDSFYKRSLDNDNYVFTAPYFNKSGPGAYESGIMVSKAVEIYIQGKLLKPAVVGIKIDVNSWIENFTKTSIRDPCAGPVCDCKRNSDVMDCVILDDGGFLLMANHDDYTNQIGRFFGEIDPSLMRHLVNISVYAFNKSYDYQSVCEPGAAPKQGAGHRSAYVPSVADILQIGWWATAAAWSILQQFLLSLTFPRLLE
Sequence (P54289 957-1103 partner limits assumed): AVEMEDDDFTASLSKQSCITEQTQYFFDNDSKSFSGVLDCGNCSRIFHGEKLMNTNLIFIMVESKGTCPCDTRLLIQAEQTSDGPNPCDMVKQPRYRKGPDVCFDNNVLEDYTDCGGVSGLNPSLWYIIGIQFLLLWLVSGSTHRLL
Sequence (P54284 whole entry partner): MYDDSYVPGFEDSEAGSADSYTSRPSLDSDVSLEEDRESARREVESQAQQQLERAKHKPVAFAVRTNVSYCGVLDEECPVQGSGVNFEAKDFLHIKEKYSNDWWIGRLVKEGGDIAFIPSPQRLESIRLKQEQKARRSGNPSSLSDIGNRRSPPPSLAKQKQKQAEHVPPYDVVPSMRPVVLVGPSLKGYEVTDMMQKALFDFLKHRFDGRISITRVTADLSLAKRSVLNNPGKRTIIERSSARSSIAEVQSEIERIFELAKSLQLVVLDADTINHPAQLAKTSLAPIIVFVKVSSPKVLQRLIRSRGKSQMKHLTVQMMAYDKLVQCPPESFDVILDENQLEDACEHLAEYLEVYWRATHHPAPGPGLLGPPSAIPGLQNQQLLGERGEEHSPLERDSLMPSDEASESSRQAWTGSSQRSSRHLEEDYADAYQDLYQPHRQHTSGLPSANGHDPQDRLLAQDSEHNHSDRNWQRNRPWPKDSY
Test: Inhibition of N-type calcium flux in IMR-32 cells (Indo-1 fluorescence, nitrendipine present)
Format: cell-based
Details: 10 μM
Procedure: Measurement of N-type Ca^2+ Channel Blocking Potencies of Compounds in IMR-32 Cells Using the Fluorescent Ca^2+ Indicator Indo-1 IMR-32 cells are a human tumoral cell line of neural origin. […] Calcium flux into these cells may be induced by stimulation with elevated potassium concentrations. The L-channel component of calcium flux may be blocked by adding 5 μM nitrendipine. […] Intracellular calcium concentrations are measured using the fluorescent calcium indicator Indo 1. […]
measurementType: Inhibition of Calcium Flux in IMR-32 Cells % Inhibition at 10 μM (%)

| compound | unitInfo | measValue |
| --- | --- | --- |
| CC(C)(C)OC(=O)[C@H](Cc1ccc(OCc2ccccc2)cc1)NC(=O)CNC(=O)N1CCCCCC1 (stereo in doubt) [Example 8] | % | 86 |
| CC(C)C[C@H](NC(=O)Cc1cccs1)C(=O)N[C@@H](Cc1ccc(OCc2ccccc2)cc1)C(=O)OC(C)(C)C (relative stereo) [Example 122] | % | 84 |
| CCC(CO)(CO)NC(=O)[C@H](Cc1ccc(OCc2ccccc2)cc1)NC(=O)[C@H](CC(C)C)NC(=O)N1CCCCCC1 (relative stereo) [Example 229] | % | 80 |
| Cc1onc(-c2ccccc2)c1C(=O)N[C@@H](CC(C)C)C(=O)N[C@@H](Cc1ccc(OCc2ccccc2)cc1)C(=O)OC(C)(C)C (relative stereo) [Example 131] | % | 44 |
| CC(C)C[C@H](NC(=O)N1CCCCCC1)C(=O)N[C@@H](Cc1ccc(OCc2ccccc2)cc1)C(=O)N1CCN(CCOCCO)CC1 (relative stereo) [Example 228] | % | 82 |
| CC(C)CC(NC(=O)N1CCCCCC1)C(=O)NC(Cc1ccc(OCc2ccccc2)cc1)C(=O)NC(CO)C(O)c1ccccc1 (stereo not drawn) [Example 227] | % | 86 |
| Cc1ccc(NC(=O)N[C@@H](CC(C)C)C(=O)N[C@@H](Cc2ccc(OCc3ccccc3)cc2)C(=O)OC(C)(C)C)cc1 (relative stereo) [Example 58] | % | 35 |
| CCCCNC(=S)N[C@@H](CC(C)C)C(=O)N[C@@H](Cc1ccc(OCc2ccccc2)cc1)C(=O)OC(C)(C)C (relative stereo) [Example 49] | % | 99 |
| CCCCNC(=O)N[C@@H](CC(C)C)C(=O)N[C@@H](Cc1ccc(OCc2ccccc2)cc1)C(=O)OC(C)(C)C (relative stereo) [Example 59] | % | 61 |
| COc1cc(NC(=O)[C@H](Cc2ccc(OCc3ccccc3)cc2)NC(=O)[C@H](CC(C)C)NC(=O)N2CCCCCC2)cc(OC)c1OC (relative stereo) [Example 223] | % | 74 |
| CC(C)C[C@H](NC(=O)N1CCCCCC1)C(=O)N[C@@H](Cc1ccc(OCc2ccccc2)cc1)C(=O)N1CCC(O)CC1 (relative stereo) [Example 235] | % | 64 |
| CC(C)C[C@H](NC(=O)N1CCCCCC1)C(=O)N[C@@H](Cc1ccc(OCc2ccccc2)cc1)C(=O)N1CCN(c2ccc(F)cc2)CC1 (relative stereo) [Example 240] | % | 86 |

* * *

biological target: N-type Ca2+ channels in IMR-32 cells (Homo sapiens); assay: Inhibition of N-type calcium flux in IMR-32 cells (Indo-1 fluorescence, nitrendipine present); details: IMR-32 cells, 5 μM nitrendipine, K+ depolarization
measurementType: log10 IC50 (log10 of the value in nM)

| compound | log10 IC50 |
| --- | --- |
| CC(C)C[C@H](NC(=O)N1CCCCCC1)C(=O)N[C@@H](Cc1ccc(OCc2ccccc2)cc1)C(=O)N1CCN(Cc2ccccc2)CC1 (relative stereo) | 2.91 |
| CSCCC(CO)NC(=O)[C@H](Cc1ccc(OCc2ccccc2)cc1)NC(=O)C(CC(C)C)NC(=O)N1CCCCCC1 (stereo in doubt) | 2.87 |
| CC(C)C[C@H](NC(=O)N1CCCCCC1)C(=O)N[C@@H](Cc1ccc(OCc2ccccc2)cc1)C(=O)Nc1ccc(Br)cc1 (relative stereo) | 2.45 |
| Cc1noc(C)c1S(=O)(=O)N[C@@H](CC(C)C)C(=O)N[C@@H](Cc1ccc(OCc2ccccc2)cc1)C(=O)OC(C)(C)C | 3.04 |
| Cc1cc(NC(=O)[C@H](Cc2ccc(OCc3ccccc3)cc2)NC(=O)[C@H](CC(C)C)NC(=O)N2CCCCCC2)c(C)cc1O | 3.64 |
| CSCC[C@H](NC(=O)N1CCCCCC1)C(=O)N[C@@H](Cc1ccc(OCc2ccccc2)cc1)C(=O)NCCN1CCCCC1 | 3.98 |
| CC(C)C[C@H](NC(=O)N1CCCCCC1)C(=O)N[C@@H](Cc1ccc(OCc2ccccc2)cc1)C(=O)NCCCn1ccnc1 | 2.98 |
| CC(C)CC(NC(=O)N1CCCCCC1)C(=O)NC(Cc1ccc(OCc2ccccc2)cc1)C(=O)NC1CCCN(CC(C)C)C1 (stereo not shown) | 2.56 |
| CC(C)C[C@H](NC(=O)N1CCCCCC1)C(=O)N[C@@H](Cc1ccc(OCc2ccccc2)cc1)C(=O)NCCN1CCCC1=O | 3.11 |
| CC(C)C[C@H](NC(=O)N1CCCCCC1)C(=O)NC(Cc1ccc(OCc2ccccc2)cc1)C(=O)N[C@@H]1CN2CCC1CC2 (stereo partly shown) | 3.89 |
| CC(C)C[C@H](NC(=O)N1CCCCCC1)C(=O)N[C@@H](Cc1ccc(OCC2CCCCC2)cc1)C(=O)OC(C)(C)C | 2.80 |
| CC(C)C[C@@H](NC(=O)N1CCCCCC1)C(=O)N[C@H](Cc1ccc(OCc2ccccc2)cc1)C(=O)OC(C)(C)C | 2.95 |
| COc1ccc(C[C@H](NC(=O)[C@H](CC(C)C)NC(=O)N2CCCCCC2)C(=O)OC(C)(C)C)cc1 | 3.23 |
| Cc1ccc(COc2ccc(C[C@H](NC(=O)[C@H](Cc3ccccc3)NC(=O)N3CCCCCC3)C(=O)OC(C)(C)C)cc2)cc1 | 2.70 |
| CC(C)C[C@H](NC(=O)N1CCCCCC1)C(=O)N[C@@H](Cc1ccc(OCc2ccccc2)cc1)C(=O)N1CCN(C)CC1 | 3.15 |
| CC(C)(C)NC(=O)[C@H](Cc1ccc(OCc2ccccc2)cc1)NC(=O)[C@H](CCCCC(=O)OC(C)(C)C)NC(=O)N1CCCCCC1 | 2.95 |
| CC(C)C[C@H](NC(=O)N1CCCCCC1)C(=O)N[C@@H](Cc1ccc(OCc2ccccc2)cc1)C(=O)OC(C)(C)C | 2.54 |
| CC(C)(C)NC(=O)[C@H](Cc1ccc(OCc2ccccc2)cc1)NC(=O)[C@H](Cc1ccc(OC(C)(C)C)cc1)NC(=O)N1CCCCCC1 | 2.69 |
| CC(C)(C)OC(=O)[C@@H](Cc1ccc(OCc2ccccc2)cc1)NC(=O)[C@H](Cc1ccccc1)NC(=O)N1CCCCCC1 | 2.97 |
| CC(C)C[C@H](NC(=O)N1CCCCCC1)C(=O)N[C@@H](Cc1ccc(OCc2ccccc2)cc1)C(=O)N1CCCCC1 | 2.72 |
| CC(C)C[C@H](NC(=O)N1CCCCCC1)C(=O)N[C@@H](Cc1ccc(OCc2ccccc2)cc1)C(=O)N1CCN(C(c2ccccc2)c2ccccc2)CC1 | 3.08 |
| CC(C)C[C@H](NC(=O)N1CCN(c2ccccc2)CC1)C(=O)N[C@@H](Cc1ccc(OCc2ccccc2)cc1)C(=O)OC(C)(C)C | 3.32 |
| COc1ccc(N2CCN(C(=O)[C@H](Cc3ccc(OCc4ccccc4)cc3)NC(=O)[C@H](CC(C)C)NC(=O)N3CCCCCC3)CC2)cc1 | 2.87 |
| CC(C)CC(NC(=O)N1CCCCCC1)C(=O)NC(Cc1ccc(OCc2ccccc2)cc1)C(=O)NC(CO)C(C)C (stereo not shown) | 3.04 |
| CC(C)C[C@H](NC(=O)N1CCCCCC1)C(=O)N[C@@H](Cc1ccc(OCc2ccccc2)cc1)C(=O)Nc1ccc(Oc2ccccc2)cc1 | 3.38 |
